# assayed.system: Monoglyceride lipase (Rattus norvegicus)
# Sequence (whole entry): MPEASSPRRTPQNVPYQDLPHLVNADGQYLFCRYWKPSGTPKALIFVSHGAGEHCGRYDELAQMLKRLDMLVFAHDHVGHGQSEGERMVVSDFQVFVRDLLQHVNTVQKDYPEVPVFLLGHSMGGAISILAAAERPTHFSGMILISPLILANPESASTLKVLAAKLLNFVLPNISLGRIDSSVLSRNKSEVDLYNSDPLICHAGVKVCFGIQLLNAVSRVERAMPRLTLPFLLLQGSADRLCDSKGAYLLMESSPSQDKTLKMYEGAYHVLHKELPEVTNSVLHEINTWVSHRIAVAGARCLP
# experimental.protocol: Inhibition of MAGL in rat brain homogenate assessed as accumulation of 2-AG at 1 uM measured after 15 mins by HPLC-MS analysis relative to control
# Format: tissue-based
# Parameters: scale not given: the % may be the effect or the level left
assay.endpoint: Activity (%)

> print(dat)
                              line.notation  measurement
1  O=C(c1cc2ccc(C(F)(F)F)cc2s1)N1CC(N2CC(N3Cc4ccccc4C3=O)C2)C1          192

(A) O=C(c1ccc2nc(-c3ccccc3)oc2c1)N1CC(N2CC(N3Cc4ccccc4C3=O)C2)C1
(B) O=C(NC1CN(C2CN(C(=O)c3ccc4nc(-c5ccccc5)oc4c3)C2)C1)c1nccs1
Query string: Which value of Activity is smaller, the one for A or the one for B ? I would appreciate it if you answered with the label of your choice.
Result string: A

----------
# assayed.system: Monoglyceride lipase (Rattus norvegicus) (UniProt Q8R431)
# Sequence (whole entry): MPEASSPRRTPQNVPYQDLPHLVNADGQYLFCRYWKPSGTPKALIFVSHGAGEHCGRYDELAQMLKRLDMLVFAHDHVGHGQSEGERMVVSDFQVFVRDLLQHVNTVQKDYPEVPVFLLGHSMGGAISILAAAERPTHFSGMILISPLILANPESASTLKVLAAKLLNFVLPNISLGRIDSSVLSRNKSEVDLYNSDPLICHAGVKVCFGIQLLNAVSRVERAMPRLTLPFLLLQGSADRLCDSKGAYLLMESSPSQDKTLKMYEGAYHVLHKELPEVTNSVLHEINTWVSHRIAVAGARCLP
# experimental.protocol: Inhibition of MAGL in rat brain homogenate assessed as accumulation of 2-AG at 1 uM measured after 15 mins by HPLC-MS analysis relative to control
# Assay type: tissue-based
# Parameters: scale not given: the % may be the effect or the level left
assay.endpoint: Activity (%)

> print(dat)
                              line.notation  measurement
1  O=C(NC1CN(C2CN(C(=O)c3sc4cc(C(F)(F)F)ccc4c3Cl)C2)C1)c1nccs1          460
2  O=C(NC1CN(C2CN(C(=O)c3ccc(-c4cccc(C(F)(F)F)c4)cc3)C2)C1)c1cscn1          620
3  O=C(c1cc2cc(-c3ccccc3)ccc2s1)N1CC(N2CC(N3Cc4ccccc4C3=O)C2)C1          253

(I) O=C(c1ccc(-c2ccc(C(F)(F)F)s2)cc1)N1CC(N2CC(N3Cc4ccccc4C3=O)C2)C1
(II) O=C(NC1CN(C2CN(C(=O)c3sc4cc(C(F)(F)F)ccc4c3Cl)C2)C1)c1cscn1
Query string: Short answer wanted: higher Activity, I or II ? I would appreciate it if you answered with the label of your choice.
Result string: II
